Where do these numbers come from? They come from patent US20250339566A1.

Biological target: human DPP9 (Homo sapiens, UniProt Q86TI2)
Construct: made in house; host or cells: Sf9 insect cells (baculovirus)
Sequence (Q86TI2 whole entry): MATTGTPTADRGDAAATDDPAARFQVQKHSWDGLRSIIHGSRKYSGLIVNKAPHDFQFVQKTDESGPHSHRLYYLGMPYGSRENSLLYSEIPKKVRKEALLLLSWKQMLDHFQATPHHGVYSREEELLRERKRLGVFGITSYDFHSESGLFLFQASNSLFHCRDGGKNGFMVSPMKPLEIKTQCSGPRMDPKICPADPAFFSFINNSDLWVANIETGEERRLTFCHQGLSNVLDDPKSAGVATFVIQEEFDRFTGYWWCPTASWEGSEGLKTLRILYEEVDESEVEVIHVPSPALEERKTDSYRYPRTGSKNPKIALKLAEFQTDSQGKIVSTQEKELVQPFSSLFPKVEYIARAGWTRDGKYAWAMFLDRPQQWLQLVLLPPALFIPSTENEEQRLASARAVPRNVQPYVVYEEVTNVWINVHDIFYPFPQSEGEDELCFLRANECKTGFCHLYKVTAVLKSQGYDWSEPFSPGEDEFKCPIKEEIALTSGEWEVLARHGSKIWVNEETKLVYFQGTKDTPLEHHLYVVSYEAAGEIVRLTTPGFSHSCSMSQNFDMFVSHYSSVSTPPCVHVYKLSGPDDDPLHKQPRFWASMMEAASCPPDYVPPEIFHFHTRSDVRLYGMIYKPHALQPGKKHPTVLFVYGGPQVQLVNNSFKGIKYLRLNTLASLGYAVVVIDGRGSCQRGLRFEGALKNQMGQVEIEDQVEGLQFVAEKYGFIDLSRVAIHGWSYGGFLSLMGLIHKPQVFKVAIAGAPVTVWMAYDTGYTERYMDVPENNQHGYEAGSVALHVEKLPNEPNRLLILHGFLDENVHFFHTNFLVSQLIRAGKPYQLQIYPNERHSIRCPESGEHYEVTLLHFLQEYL
Assay: DPP9 IC50 measurement (Ala-Pro-pNA)
Type: biochemical
Details: IC50(DPP9)/IC50(FAP)
Can you tell me Selectivity index DPP9 for the items I'm about to list?

Each compound below has a recorded value; state its Selectivity index DPP9.
1. C[N+](C)(CF)CCCOc1ccc2nccc(C(=O)NCC(=O)N3CC(F)(F)C[C@H]3C#N)c2c1.Cc1ccc(S(=O)(=O)[O-])cc1
2. CC(C)(C)OC(=O)N1CC[N+](C)(CCCOc2ccc3nccc(C(=O)NCC(=O)N4CC(F)(F)C[C@H]4C#N)c3c2)CC1
3. C[N+]1(CCCOc2ccc3nccc(C(=O)NCC(=O)N4CC(F)(F)C[C@H]4C#N)c3c2)CCN(C(=O)c2ccc(B(O)O)cc2)CC1.Cc1ccc(S(=O)(=O)[O-])cc1
4. C[N+](C)(CCF)CCOCCOc1ccc2nccc(C(=O)NCC(=O)N3CC(F)(F)C[C@H]3C#N)c2c1 [Compound 8, 4-methylbenzenesulfonate]
5. C[N+](C)(CF)CCOCCOc1ccc2nccc(C(=O)NCC(=O)N3CC(F)(F)C[C@H]3C#N)c2c1.Cc1ccc(S(=O)(=O)[O-])cc1

1. >31000
2. >2200
3. >1700
4. >1300
5. >20000

Entry C[N+](C)(CF)CCOCCOCCOc1ccc2nccc(C(=O)NCC(=O)N3CC(F)(F)C[C@H]3C#N)c2c1 has what Selectivity index DPP9?
>21000

* * *

Molecular target: DPP4 (Homo sapiens)
Construct: DPP4 was purified from human seminal plasma; from tissue; host or cells: human seminal plasma
Sequence (P27487 whole entry): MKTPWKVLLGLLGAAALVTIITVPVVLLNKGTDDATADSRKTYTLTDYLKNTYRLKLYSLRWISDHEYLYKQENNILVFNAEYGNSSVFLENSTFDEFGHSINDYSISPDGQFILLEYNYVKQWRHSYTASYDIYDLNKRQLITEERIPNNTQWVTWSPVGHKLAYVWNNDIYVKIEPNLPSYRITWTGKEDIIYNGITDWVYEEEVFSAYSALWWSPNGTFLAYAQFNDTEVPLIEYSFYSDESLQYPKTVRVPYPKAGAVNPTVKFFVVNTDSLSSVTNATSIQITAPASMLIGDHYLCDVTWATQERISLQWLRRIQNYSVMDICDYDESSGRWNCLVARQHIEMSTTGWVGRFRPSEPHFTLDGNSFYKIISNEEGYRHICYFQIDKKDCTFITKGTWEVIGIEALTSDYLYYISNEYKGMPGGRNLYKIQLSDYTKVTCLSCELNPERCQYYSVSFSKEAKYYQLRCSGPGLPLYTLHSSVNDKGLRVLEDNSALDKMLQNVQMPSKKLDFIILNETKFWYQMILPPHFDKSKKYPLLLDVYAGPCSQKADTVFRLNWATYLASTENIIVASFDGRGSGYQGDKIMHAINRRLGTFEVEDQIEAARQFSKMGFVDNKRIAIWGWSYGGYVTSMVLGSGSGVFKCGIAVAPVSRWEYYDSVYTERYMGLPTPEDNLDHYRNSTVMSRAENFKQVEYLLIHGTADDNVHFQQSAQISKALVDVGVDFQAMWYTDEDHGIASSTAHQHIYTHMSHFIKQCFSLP
Assay: DPP4 IC50 measurement (Ala-Pro-pNA)
Format: biochemical
Details: IC50(DPP4)/IC50(FAP)
Can you tell me Selectivity index DPP4 for the items I'm about to list?

Example entries begin here.
C[N+](C)(CF)CCOc1ccc2nccc(C(=O)NCC(=O)N3CC(F)(F)C[C@H]3C#N)c2c1.Cc1ccc(S(=O)(=O)[O-])cc1 [Compound 4b] : >4800
C[N+](C)(CF)CCOCCOc1ccc2nccc(C(=O)NCC(=O)N3CC(F)(F)C[C@H]3C#N)c2c1.Cc1ccc(S(=O)(=O)[O-])cc1 [Compound 9] : >20000

Next:
Entry C[N+](C)(C)CCOCCOCCOc1ccc2nccc(C(=O)NCC(=O)N3CC(F)(F)C[C@H]3C#N)c2c1.Cc1ccc(S(=O)(=O)[O-])cc1 [Compound 7] has what Selectivity index DPP4?
>36000

* * *

Target: human DPP9 (Homo sapiens)
Construct: made in house; host or cells: Sf9 insect cells (baculovirus)
Assay: DPP9 IC50 measurement (Ala-Pro-pNA)
Type: biochemical
Conditions: IC50(DPP9)/IC50(FAP)
Can you tell me Selectivity index DPP9 for the items I'm about to list?

Example entries begin here.
C[N+](C)(C)CCOCCOCCOc1ccc2nccc(C(=O)NCC(=O)N3CC(F)(F)C[C@H]3C#N)c2c1.Cc1ccc(S(=O)(=O)[O-])cc1 : >36000
C[N+]1(CCCOc2ccc3nccc(C(=O)NCC(=O)N4CC(F)(F)C[C@H]4C#N)c3c2)CCN(C(=O)c2ccc(I)cc2)CC1 : >2200
C[N+]1(CCCOc2ccc3nccc(C(=O)NCC(=O)N4CC(F)(F)C[C@H]4C#N)c3c2)CCN(C(=O)c2ccc(F)cc2)CC1 : >1000

Next:
Entry C[N+](C)(CF)CCOc1ccc2nccc(C(=O)NCC(=O)N3CC(F)(F)C[C@H]3C#N)c2c1.Cc1ccc(S(=O)(=O)[O-])cc1 has what Selectivity index DPP9?
>4800
